Molecular target: T1, N1 binding to cell surface expressed hJ1 (Homo sapiens, UniProt P78504)
T1 construct: cell expressed full length human J1 (hJ1; HEK293 transfectants); expressed in transfected cells; host or cells: HEK293
T1 sequence (P78504 34-1218): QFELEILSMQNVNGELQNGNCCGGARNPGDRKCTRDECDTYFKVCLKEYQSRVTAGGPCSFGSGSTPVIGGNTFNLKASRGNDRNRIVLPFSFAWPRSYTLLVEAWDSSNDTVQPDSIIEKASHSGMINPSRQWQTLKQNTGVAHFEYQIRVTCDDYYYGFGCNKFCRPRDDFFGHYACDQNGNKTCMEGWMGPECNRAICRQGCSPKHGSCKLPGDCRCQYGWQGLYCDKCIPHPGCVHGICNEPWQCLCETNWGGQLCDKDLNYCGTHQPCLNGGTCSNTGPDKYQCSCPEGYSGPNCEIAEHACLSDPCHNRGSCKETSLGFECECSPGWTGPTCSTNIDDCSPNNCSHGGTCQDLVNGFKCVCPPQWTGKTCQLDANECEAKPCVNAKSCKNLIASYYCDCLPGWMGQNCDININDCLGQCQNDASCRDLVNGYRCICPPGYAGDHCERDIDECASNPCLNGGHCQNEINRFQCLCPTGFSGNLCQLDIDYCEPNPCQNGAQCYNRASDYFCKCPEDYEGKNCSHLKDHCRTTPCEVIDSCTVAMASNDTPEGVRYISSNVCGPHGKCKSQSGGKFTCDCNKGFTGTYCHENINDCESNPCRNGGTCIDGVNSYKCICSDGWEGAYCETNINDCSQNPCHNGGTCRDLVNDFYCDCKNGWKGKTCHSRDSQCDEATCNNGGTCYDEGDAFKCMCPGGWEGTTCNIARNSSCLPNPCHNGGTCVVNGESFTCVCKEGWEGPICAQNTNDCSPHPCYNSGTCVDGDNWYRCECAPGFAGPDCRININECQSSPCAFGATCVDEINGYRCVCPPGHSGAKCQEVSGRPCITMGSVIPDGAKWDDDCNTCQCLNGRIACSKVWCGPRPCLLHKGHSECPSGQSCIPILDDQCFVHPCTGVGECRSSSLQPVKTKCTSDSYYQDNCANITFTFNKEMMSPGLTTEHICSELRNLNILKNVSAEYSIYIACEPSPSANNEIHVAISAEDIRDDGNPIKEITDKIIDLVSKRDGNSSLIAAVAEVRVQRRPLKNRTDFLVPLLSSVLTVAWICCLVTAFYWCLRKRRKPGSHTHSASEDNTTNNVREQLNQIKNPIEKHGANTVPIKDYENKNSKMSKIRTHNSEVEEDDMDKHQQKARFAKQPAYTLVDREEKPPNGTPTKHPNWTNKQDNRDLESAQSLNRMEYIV
Assay: Notch binding blocking assay (FACS): N1 EGF11-13 beads staining human J1-expressing cells
Details: final antibody concentration 2.0 μg/ml
QUANTITY NAME: Blocking of Notch1 binding to cell surface Jagged 1

- J1-65D variant 13: humanised/de-immunised J1-65D: J1-65D_VL_4 + J1-65D_VH_1 (antibody, V domains shown) VH: QVQLVQSGAELKKPGSSVKVSCKASGYTFTDYEMHWVRQAPGQGLEWMGAIQPGGGGTAYNQKFKGRVTLTADKSTSTAYMELSSLRSEDTAVYYCTRRGYDDYPFAYWGQGTLVTVSS VL: DIQMTQSPSSLSASVGDRVTITCRASQGIHNYLAWYQQKPGKAPKLLIYNAKTLADAVPSRFSGSGSGTDYTLTISSLQPEDFATYYCQQFWSAPWTFGQGTKLEIK: Partial
- J1-65D variant 16: humanised/de-immunised J1-65D: J1-65D_VL_4 + J1-65D_VH_4 (antibody, V domains shown) VH: QVQLVQSGAEVKKPGSSVKVSCKASGYTFTDYEMHWVRQAPGQGLEWMGAIQPGGGGTAYAQKFQGRVTITADKSTSTAYMELSSLRSEDTAVYYCTRRGYDDYPFAYWGQGTLVTVSS VL: DIQMTQSPSSLSASVGDRVTITCRASQGIHNYLAWYQQKPGKAPKLLIYNAKTLADAVPSRFSGSGSGTDYTLTISSLQPEDFATYYCQQFWSAPWTFGQGTKLEIK: Partial
- J1-65D variant 14: humanised/de-immunised J1-65D: J1-65D_VL_4 + J1-65D_VH_2 (antibody, V domains shown) VH: QVQLVQSGAELKKPGSSVKVSCKASGYTFTDYEMHWVRQAPGQGLEWMGAIQPGGGGTAYAQKFKGRVTLTADKSTSTAYMELSSLRSEDTAVYYCTRRGYDDYPFAYWGQGTLVTVSS VL: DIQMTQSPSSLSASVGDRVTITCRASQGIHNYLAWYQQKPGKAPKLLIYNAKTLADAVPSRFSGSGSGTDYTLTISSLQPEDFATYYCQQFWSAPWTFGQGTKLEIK: Partial
